Tested on: XIP peptide (Xip251-270) binding
Assay: small-molecule binders of XIP peptide, primary screen, biochemical, small-molecule microarray, fluorescence 635/667 nm, 0.1 µg/mL protein (AID 1182)
Settings: fluorescent protein binding, 635 nm, higher = more signal, called active from +8 up or from −8 down
Consider the following molecules; for each one, report its composite z-score.
Answers are plain numbers.

{"Molecule": "CO[C@H]1COC(=O)[C@@H]2CCCN2C(=O)CC=C[C@@H](C)[C@H](OC)COC(=O)[C@@H](OCc2ccccc2)C=C[C@@H]1C", "Study target": "XIP peptide (Xip251-270) binding", "composite z-score": 0.0932}

Hello, I would appreciate it if you could give composite z-score for each entry below.
1. O=C(NN=C1C[C@@H](O)[C@@H](O)[C@@H]2[C@@H]3C(=O)N(Cc4ccccc4)C(=O)[C@@H]3CC[C@@H]12)OCc1ccccc1
2. C#CCCCON=C1C[C@@H](O)[C@@H](O)[C@@H]2[C@@H]3C(=O)N(CC)C(=O)[C@@H]3CC[C@@H]12
3. CCOC(=O)[C@H](CC(C)C)NC(=O)CCC1CC(OC(=O)NCc2ccc3c(c2)OCO3)CC2(CCCC(COC(=O)NCCCN3CCCC3=O)O2)O1 (stereo not given in full)
4. CO[C@H]1COC(=O)[C@H](C)NC(=O)CC=C[C@@H](C)[C@H](OC)COC(=O)[C@@H](OCc2ccccc2)C=C[C@@H]1C

1. -0.0255
2. 0.901
3. -0.228
4. -0.296

###

Molecular target: Neurogenic locus notch homolog protein 3 (Homo sapiens)
Test: NOTCH3 binders on small-molecule microarray, primary screen, biochemical, 635/667 nm fluorescence (AID 1096)
Settings: NOTCH3 binding, 635 nm fluorescence, higher = more signal
# composite z-score >= -0.4 gives t, anything below gives f

Some entries whose results are on file:
{"Compound": "CCOC(=O)[C@H](CC(C)C)NC(=O)CCC1CC(OC(=O)NCCc2ccc(F)cc2)CC2(CCCC(COC(=O)NCCC(C)C)O2)O1 (stereo partly specified)", "Study target": "Neurogenic locus notch homolog protein 3 (Homo sapiens)", "Label value": "f"}
{"Compound": "CCOC(=O)[C@H](CC(C)C)NC(=O)CCC1CC(OC(=O)NCc2cccc3ccccc23)CC2(CCCC(COC(=O)NCCC(C)C)O2)O1 (stereo partly specified)", "Study target": "Neurogenic locus notch homolog protein 3 (Homo sapiens)", "Label value": "t"}
{"Compound": "C[C@@H](c1ccccc1)N1C(=O)[C@H]2[C@H]3[C@H](O)[C@H](O)CC(=NO[C@@H]4O[C@H](CO)[C@@H](O)[C@H](O)[C@H]4O)[C@@H]3CC[C@H]2C1=O", "Study target": "Neurogenic locus notch homolog protein 3 (Homo sapiens)", "Label value": "t"}
{"Compound": "CCOC(=O)[C@H](Cc1ccccc1)NC(=O)CCC1CC(OC(=O)NCCc2ccc(F)cc2)CC2(CCCC(COC(=O)NCCc3ccccc3OC)O2)O1 (stereo partly specified)", "Study target": "Neurogenic locus notch homolog protein 3 (Homo sapiens)", "Label value": "t"}

Below: the item to evaluate.
Does composite z-score meet or surpass -0.4 for `COCOc1ccc(Br)cc1C(=O)[C@@H]1O[C@H]1c1cccc(OC)c1` ?
t

###

Provide the reported composite z-score of each item.
Tested on: XIP peptide (Xip251-270) binding
Experiment: small-molecule binders of XIP peptide, primary screen, biochemical, small-molecule microarray, fluorescence 635/667 nm, 0.1 µg/mL protein (AID 1182)
Details: fluorescent protein binding, 635 nm, higher = more signal, called active from +8 up or from −8 down
Give bare numbers.

# return composite z-score for each item in the list
1. CCOC(=O)[C@H](Cc1ccccc1)NC(=O)CCC1CC(OC(=O)NCc2cccc3ccccc23)CC2(CCCC(COC(=O)NCc3ccccc3)O2)O1 (stereo not given in full)
2. COC(=O)[C@H]1O[C@@H](c2c(OC)c(OC)c(C)c(OC)c2OC)[C@H](C)[C@@H](O)[C@H]1C
3. COC(=O)NCC=Cc1nc(CCCO)co1
4. COC(=O)CC=C[C@@H](C)[C@@H](C=NOCC[C@@H]1C=C[C@H](OC(C)=O)[C@@H](COC(C)=O)O1)NS(=O)(=O)c1ccc(C)cc1

1: 0.278; 2: 0.498; 3: -0.755; 4: 0.412

Find composite z-score (XIP peptide (Xip251-270) binding) for the entry `O=C(C=Cc1ccc2c(c1)OCO2)c1ccc(F)cc1`
-0.158

###

Assay: A549 lung cancer cell viability effects, profiling panel, resazurin fluorescence, 24 h, PK04 Diversity Set (AID 1171)
Conditions: higher = more signal, called active from +8 up or from −8 down
Observed property: z-score
Give bare numbers.

{"Compound": "C[C@@H]1C=CCC(=O)OC[C@H]2O[C@@H](C=C[C@@H]2O)[C@H](C)C=CCC(=O)OC1", "Obs value": -0.976}
{"Compound": "COc1ccc(O[C@@H]2[C@H](O)CO[C@@H]2C=Cc2ccccc2)cc1", "Obs value": -0.548}
{"Compound": "CCOC(=O)[C@H](CC(C)C)NC(=O)CCC1CC(OC(=O)NCCc2ccc(F)cc2)CC2(CCCC(COC(=O)NCCOc3ccccc3)O2)O1 (some centres undefined)", "Obs value": 0.169}

For COC(=O)[C@H](C)NC(=O)CCC1CC(OC(=O)NCc2ccc3c(c2)OCO3)CC2(CCCC(COC(=O)NCCc3ccccc3OC)O2)O1 (some centres undefined) , what is its reported z-score?
0.389

###

Experiment: MM1S myeloma cell viability, profiling panel, resazurin fluorescence, basal, 24 h, PK04 Diversity Set (AID 1174);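 further: MM1S multiple myeloma cell line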
Conditions: higher = more signal, called active from +8 up or from −8 down
Binary classification by z-score, with -1 as an inclusive lower bound for 1.0; all other cases are 0.0.

{"Molecule": "CCCNC(=O)OC[C@H]1O[C@H](CCON=C(C)CCC(=O)OC[C@H]2O[C@H](c3ccccc3)C=C[C@@H]2Oc2ccc(OC)cc2)C=C[C@@H]1Oc1ccc(OC)cc1", "Label value": 1.0}
{"Molecule": "COc1ccc(O[C@H]2C=C[C@@H](c3ccccc3)O[C@@H]2CON=C(C)CCN2CCc3nc(-c4ccccc4)c(-c4ccccc4)cc3C2)cc1", "Label value": 1.0}
{"Molecule": "CC(=O)OC[C@H]1O[C@H](C#Cc2ccccc2)C=C[C@@H]1OC(C)=O", "Label value": 0.0}
{"Molecule": "CC(CCN1CCc2nc(-c3ccccc3)c(-c3ccccc3)cc2C1)=NOC[C@@H](O)[C@H]1O[C@@H]2OC(C)(C)O[C@@H]2[C@H]1O", "Label value": 0.0}
{"Molecule": "O=C(NN=C1C[C@@H](O)[C@@H](O)[C@@H]2[C@@H]3C(=O)N(C[C@@H]4CCCO4)C(=O)[C@@H]3CC[C@H]12)OCc1ccccc1", "Label value": 1.0}
{"Molecule": "COc1ccc(COC(=O)NN=C2C[C@@H](O)[C@@H](O)[C@@H]3[C@@H]4C(=O)N(c5cccc(Oc6ccccc6)c5)C(=O)[C@@H]4CC[C@@H]23)cc1", "Label value": 1.0}
{"Molecule": "CCCCC#C[C@@H]1C=C[C@H](Oc2ccc(C(=O)OC)cc2)[C@@H](COC(=O)OCC)O1", "Label value": 0.0}
{"Molecule": "CON=C[C@@H](NS(=O)(=O)c1ccc(C)cc1)[C@H](C)C=CCC(=O)OC", "Label value": 1.0}
{"Molecule": "COC(=O)[C@H]1O[C@@H](c2c(OC)c(OC)c(C)c(OC)c2OC)[C@H](C)[C@@H](O)[C@H]1C", "Label value": 0.0}
{"Molecule": "CC(=O)O[C@H]1C2=CO[C@H](C)[C@H]3[C@H]4C5=C([C@H](O)[C@H]6O[C@H]6C5=O)[C@H](OC4C)[C@@]23C(=O)[C@@H]2O[C@@H]21 (some centres undefined)", "Label value": 0.0}

Could you tell me if the measured z-score of `C[C@H](ON=C1[C@H]2CCn3c(=O)n(-c4ccccc4)c(=O)n3[C@H]2[C@H](O)[C@@H]2O[C@H]12)c1cn([C@H](CO)Cc2ccccc2)nn1` reaches -1 or more?
1.0

###

Experiment: basal 3T3-L1 adipocyte mitochondrial potential changes, profiling panel, cell-based, JC-1 fluorescence, 3T3-L1 adipocytes, 24 h, 100 nL compound (AID 1168)
Settings: JC-1 mitochondrial fluorescence, higher = more signal, called active from +8 up or from −8 down
Please use the following z-score ranges when assigning a class: small value (below -0.9), mid value (-0.9 to below 0.0002), large value (0.0002 or more)

{"Molecule": "CCOC(=O)[C@H](Cc1ccccc1)NC(=O)CCC1CC(OC(=O)NCc2cccc3ccccc23)CC2(CCCC(COC(=O)NCc3cccc(C(F)(F)F)c3)O2)O1 (some centres not stated)", "Label value": "large value"}

Classify this molecule: `CCN1C(=O)[C@H]2[C@H]3[C@H](O)[C@H](O)CC(=NOCC(C)C)[C@@H]3CC[C@H]2C1=O`
mid value

Which class holds `CC(C)[C@@H](OCc1ccccc1)[C@H](C)C=NOC[C@@H](O)COCc1ccco1` ?
small value

Input `O=C1[C@H]2[C@H]3[C@H](O)[C@H](O)CC(=NO[C@@H]4O[C@H](CO)[C@@H](O)[C@H](O)[C@H]4O)[C@H]3CC[C@H]2C(=O)N1c1cccc(Oc2ccccc2)c1` ; output its category
mid value

Record `C#CCCCON=C1C[C@@H](O)[C@@H](O)[C@@H]2[C@@H]3C(=O)N(CC)C(=O)[C@@H]3CC[C@@H]12` — which class?
small value

Lab note: sort `C#CCCCON=C1C[C@@H](O)[C@@H](O)[C@@H]2[C@@H]3C(=O)N(c4cccc(Oc5ccccc5)c4)C(=O)[C@@H]3CC[C@H]12` into the matching z-score band.
large value

Assign a category based on measured z-score for `COC(=O)CC=C[C@@H](C)[C@@H](C=NOCC[C@@H]1C=C[C@H](OC(C)=O)[C@@H](COC(C)=O)O1)OC` and give only the class name.
mid value

Dear colleague, I would appreciate it if you could identify the bin for `CC(C)(C)N1C(=O)[C@H]2[C@H]3[C@H](O)[C@H](O)CC(=NO[C@@H]4O[C@H](CO)[C@@H](O)[C@H](O)[C@H]4O)[C@H]3CC[C@H]2C1=O` and reply at your convenience.
small value

Dear colleague, I would appreciate it if you could identify the bin for `C[C@H](ON=C1[C@H]2CCn3c(=O)n(-c4ccccc4)c(=O)n3[C@H]2[C@H](O)[C@@H]2O[C@H]12)c1cn([C@H](CO)Cc2ccccc2)nn1` and reply at your convenience.
small value

State the class of the molecule shown: COC(=O)[C@H](C)NC(=O)CCC1CC(OC(=O)NCCc2ccc(F)cc2)CC2(CCCC(COC(=O)NCc3cccc(C(F)(F)F)c3)O2)O1 (some centres not stated)
mid value
